Target: hydrilla PDS Arg^304 → Cysteine, His-tagged (Hydrilla verticillata, UniProt Q66PY0, R304C)
Sequence (Q66PY0 77-580 R304C): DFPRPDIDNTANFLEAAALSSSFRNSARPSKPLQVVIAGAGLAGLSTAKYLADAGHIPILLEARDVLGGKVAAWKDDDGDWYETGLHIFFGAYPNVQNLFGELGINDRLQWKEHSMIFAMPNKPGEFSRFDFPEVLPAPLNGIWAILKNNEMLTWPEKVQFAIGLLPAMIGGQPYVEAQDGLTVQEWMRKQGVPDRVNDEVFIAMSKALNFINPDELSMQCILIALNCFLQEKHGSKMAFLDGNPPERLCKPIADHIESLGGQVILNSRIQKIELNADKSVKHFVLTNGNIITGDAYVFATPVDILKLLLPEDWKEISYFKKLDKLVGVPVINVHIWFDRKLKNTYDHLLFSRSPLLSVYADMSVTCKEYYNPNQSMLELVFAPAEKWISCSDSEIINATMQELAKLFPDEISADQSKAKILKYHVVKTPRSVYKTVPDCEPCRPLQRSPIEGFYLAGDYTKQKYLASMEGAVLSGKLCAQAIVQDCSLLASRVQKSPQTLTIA
Assay: Cross-resistance testing, His-tagged column-purified PDS (Table 2A)
Conditions: Cysteine at 304; His-tagged, column-purified PDS; read-out: I50
measured.attribute: pIC50
pIC50 field: float, defined as -log10 of concentration (mol/L).

- compound: "CNC1=C(c2cccc(C(F)(F)F)c2)C(=O)C(c2ccccc2)O1 (stereo not drawn)"
  value: 2.94
- compound: "O=C(Nc1ccc(F)cc1)c1cccc(Oc2cccc(C(F)(F)F)c2)n1"
  value: 4.02
- compound: "CNc1cnn(-c2cccc(C(F)(F)F)c2)c(=O)c1Cl"
  value: 2.73
- compound: "O=C1C(Cl)C(CCl)CN1c1cccc(C(F)(F)F)c1 (stereo not drawn)"
  value: 3.55
- compound: "O=C(Nc1ccc(F)cc1F)c1cccnc1Oc1cccc(C(F)(F)F)c1"
  value: 3.62

The record that follows has no pIC50 shown yet.
Given the compound CCC(Oc1ccc(F)c(C(F)(F)F)c1)C(=O)NCc1ccccc1 (stereo not drawn) , what is its reported pIC50?
3.63
